Tested on: KM12
Experimental Details: NCI tumour cell line growth inhibition, 48 h
Active and inactive are the calls of the source. No stated cut-off is given here; in the data, active = GI50 up to about 1.1 µM and inactive = higher.
For each of the molecules below, state its GI50.

In: Returns the measured GI50 for the input molecule. Input: COc1ccc2c(c1)CC[C@@H]1C2CC[C@]2(C)C(=N\O)/C(=N/O)CC12 (stereo partly specified)
Out: 11.2 µM (inactive)

In: O=S(=O)(O)c1ccc2cc(/N=N/c3c(O)ccc4ccccc34)ccc2c1 ?
Out: 97.5 µM (inactive)

In: CCOC(=O)COc1cccc2c1C(=O)CCO2 ?
Out: > 100 µM (inactive)

In: COc1cc(OC)cc(Oc2nc3ccccc3nc2C(=O)O)c1 ?
Out: > 100 µM (inactive)

In: O=C1C2Nc3ccccc3SC2C(=O)N1c1cccc([N+](=O)[O-])c1 (stereo unspecified) ?
Out: 17 µM (inactive)

In: CC(=O)Oc1cccc2c1C(=O)CCCC2 ?
Out: > 100 µM (inactive)

In: COC1CC(n2cnc3c(N)ncnc32)OC1CO (stereo unspecified) ?
Out: > 100 µM (inactive)

In: CCN(CC)C(=O)c1cccc2c(OC)ccc(OC)c12 ?
Out: > 100 µM (inactive)

In: CS(=O)(=O)CCC1CCC(=O)O1 (stereo unspecified) ?
Out: > 100 µM (inactive)

In: COc1cc(C(=O)N(C(=S)OC23CC4CC(CC(C4)C2)C3)c2ccccc2)cc(OC)c1OC ?
Out: 26.5 µM (inactive)

In: CNS(=O)(=O)NN(C)S(=O)(=O)c1ccc2ccccc2c1 ?
Out: > 100 µM (inactive)

These entries and their values trace back to ChEMBL document CHEMBL1201862.
